# TEST TARGET: E. coli DNA gyrase (Escherichia coli, UniProt P0AES4+P0AES6)
# Sequence (P0AES4 whole entry, one chain of several): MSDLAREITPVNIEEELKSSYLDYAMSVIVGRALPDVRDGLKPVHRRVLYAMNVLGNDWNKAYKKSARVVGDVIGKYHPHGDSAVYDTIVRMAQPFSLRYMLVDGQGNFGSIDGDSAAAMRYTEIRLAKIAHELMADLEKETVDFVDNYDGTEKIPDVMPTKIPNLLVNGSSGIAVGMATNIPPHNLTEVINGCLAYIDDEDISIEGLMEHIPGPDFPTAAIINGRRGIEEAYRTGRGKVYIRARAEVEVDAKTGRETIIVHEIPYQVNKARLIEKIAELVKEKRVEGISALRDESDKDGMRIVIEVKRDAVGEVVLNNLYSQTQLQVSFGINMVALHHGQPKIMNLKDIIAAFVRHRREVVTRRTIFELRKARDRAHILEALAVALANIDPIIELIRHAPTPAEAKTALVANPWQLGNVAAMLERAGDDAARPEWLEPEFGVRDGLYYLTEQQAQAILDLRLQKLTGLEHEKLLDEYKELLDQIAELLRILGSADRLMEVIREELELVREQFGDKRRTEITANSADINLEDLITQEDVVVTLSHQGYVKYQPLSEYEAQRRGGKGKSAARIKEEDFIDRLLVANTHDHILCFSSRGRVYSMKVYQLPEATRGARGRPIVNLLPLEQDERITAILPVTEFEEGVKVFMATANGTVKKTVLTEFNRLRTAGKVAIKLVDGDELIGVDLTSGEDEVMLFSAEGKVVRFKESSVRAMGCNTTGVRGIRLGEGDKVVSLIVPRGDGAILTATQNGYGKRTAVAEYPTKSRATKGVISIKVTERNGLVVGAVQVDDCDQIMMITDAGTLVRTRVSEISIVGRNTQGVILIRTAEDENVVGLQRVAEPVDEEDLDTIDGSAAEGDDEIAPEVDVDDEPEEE
# Type: biochemical
Response key: yes (1) means fluorescence, HTS screening of 50-compound library for E. coli DNA gyrase inhibitors >= 600; no (0) means fluorescence, HTS screening of 50-compound library for E. coli DNA gyrase inhibitors < 600.

Before answering, review these 4 worked examples.
# COMPOUND, ASSIGNED CATEGORY
measured = [
    ("Nc1ccc(S(N)(=O)=O)cc1 [sulfanilamide]", "no (0)"),
    ("O=C(O)c1cn(C2CC2)c2cc(N3CCNCC3)c(F)cc2c1=O [Ciprofloxacin]", "yes (1)"),
    ("NCC(=O)O [Glycine]", "yes (1)"),
    ("NC[C@H]1O[C@H](O[C@H]2[C@H](O)[C@@H](O[C@H]3O[C@H](CO)[C@@H](O)[C@H](N)[C@H]3O)[C@H](N)C[C@@H]2N)[C@H](O)[C@@H](O)[C@@H]1O [kanamycin]", "no (0)"),
]

Task item: Test whether the compound c1ccncc1 [pyridine] records fluorescence, HTS screening of 50-compound library for E. coli DNA gyrase inhibitors of 600 or higher.
Reply: no (0)

Task item: Test whether the compound Cc1ncc(C[n+]2csc(CCO)c2C)c(N)n1 [Vitamine B1] records fluorescence, HTS screening of 50-compound library for E. coli DNA gyrase inhibitors of 600 or higher.
Reply: no (0)

---

# TEST TARGET: variola virus DNA topoisomerase 1 (vTopI) (Variola virus)
# Sequence (P32989 whole entry, looked up): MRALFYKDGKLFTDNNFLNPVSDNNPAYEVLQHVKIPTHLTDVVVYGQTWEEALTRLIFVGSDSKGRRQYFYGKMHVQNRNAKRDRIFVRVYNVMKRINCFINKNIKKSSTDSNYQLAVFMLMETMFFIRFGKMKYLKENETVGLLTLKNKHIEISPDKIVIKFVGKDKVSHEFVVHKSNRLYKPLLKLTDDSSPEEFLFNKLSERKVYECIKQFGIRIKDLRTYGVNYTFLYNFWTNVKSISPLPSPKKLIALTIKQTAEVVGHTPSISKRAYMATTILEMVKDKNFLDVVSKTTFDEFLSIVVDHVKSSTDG
# Assay type: biochemical
Where a name gives a salt, the structure may show the parent alone. Where a SMILES comes first, the peptide text is derived from it. Bridges are numbered along the chain shown (N, C = ends). [ ]: non-standard residue; d: D form. The star is where a group is joined. Octanoyl(6-Me) = CCC(C)CCCCC(=O)*; Dab = NCC[CH](N)C(=O)O
MEASURED QUANTITY: fluorescence, HTS screening of 50-compound library (Table 6; vTopI)
Number only, no unit.

Field: example entries. Status: answers known.
# COMPOUND, TEST TARGET, READOUT NUMBER
measured = [
    ("CN[C@H](CC(C)C)C(=O)N[C@H]1C(=O)N[C@@H](CC(N)=O)C(=O)N[C@H]2C(=O)N[C@H]3C(=O)N[C@H](C(=O)N[C@H](C(=O)O)c4cc(O)cc(O)c4-c4cc3ccc4O)[C@H](O)c3ccc(c(Cl)c3)Oc3cc2cc(c3O[C@@H]2O[C@H](CO)[C@@H](O)[C@H](O)[C@H]2OC2C[C@](C)(N)[C@H](O)[C@H](C)O2)Oc2ccc(cc2Cl)[C@H]1O (some centres unmarked)", "variola virus DNA topoisomerase 1 (vTopI) (Variola virus)", 1398),
    ("NCCCC[C@H](N)C(=O)O", "variola virus DNA topoisomerase 1 (vTopI) (Variola virus)", 1028),
    ("CS[C@H]1SC[C@H]2C(=O)N(C)[C@@H](C(C)C)C(=O)OC[C@@H](NC(=O)c3cnc4ccccc4n3)C(=O)N[C@@H](C)C(=O)N(C)[C@@H]1C(=O)N(C)[C@@H](C(C)C)C(=O)OC[C@@H](NC(=O)c1cnc3ccccc3n1)C(=O)N[C@@H](C)C(=O)N2C", "variola virus DNA topoisomerase 1 (vTopI) (Variola virus)", 1238),
    ("CC[C@@]1(O)C(=O)OCc2c1cc1n(c2=O)Cc2cc3ccccc3nc2-1", "variola virus DNA topoisomerase 1 (vTopI) (Variola virus)", 1712),
]

Proceeding to the next compound to report its fluorescence, HTS screening of 50-compound library (Table 6; vTopI).
Task item: Using the record for CCC(C)CCCCC(=O)NC(CCN)C(=O)NC(C(=O)NC(CCN)C(=O)NC1CCNC(=O)C(C(C)O)NC(=O)C(CCN)NC(=O)C(CCN)NC(=O)C(CC(C)C)NC(=O)C(Cc2ccccc2)NC(=O)C(CCN)NC1=O)C(C)O (centres unmarked) [Polymyxin B sulfate salt] ({Octanoyl(6-Me)}-[Dab]T[Dab][Dab][Dab]FL[Dab][Dab]T; lactam 4-C; configuration not given here) , report its fluorescence, HTS screening of 50-compound library (Table 6; vTopI).
Reply: 1744

Where do these numbers come from? They come from patent US11732286B2.
